# Assayed System: Ba/F3 ETV6-FGFR4-V550L cells (Homo sapiens, UniProt P22455, V550L, cells depend on it)
# Construct: fused on or other part: N-terminal part of ETV6 (TEL), the oligomerising partner of the fusion; already named as the first entry; P41212 (Transcription factor ETV6)
# Sequence (P22455 whole entry V550L, the tested form may be a part): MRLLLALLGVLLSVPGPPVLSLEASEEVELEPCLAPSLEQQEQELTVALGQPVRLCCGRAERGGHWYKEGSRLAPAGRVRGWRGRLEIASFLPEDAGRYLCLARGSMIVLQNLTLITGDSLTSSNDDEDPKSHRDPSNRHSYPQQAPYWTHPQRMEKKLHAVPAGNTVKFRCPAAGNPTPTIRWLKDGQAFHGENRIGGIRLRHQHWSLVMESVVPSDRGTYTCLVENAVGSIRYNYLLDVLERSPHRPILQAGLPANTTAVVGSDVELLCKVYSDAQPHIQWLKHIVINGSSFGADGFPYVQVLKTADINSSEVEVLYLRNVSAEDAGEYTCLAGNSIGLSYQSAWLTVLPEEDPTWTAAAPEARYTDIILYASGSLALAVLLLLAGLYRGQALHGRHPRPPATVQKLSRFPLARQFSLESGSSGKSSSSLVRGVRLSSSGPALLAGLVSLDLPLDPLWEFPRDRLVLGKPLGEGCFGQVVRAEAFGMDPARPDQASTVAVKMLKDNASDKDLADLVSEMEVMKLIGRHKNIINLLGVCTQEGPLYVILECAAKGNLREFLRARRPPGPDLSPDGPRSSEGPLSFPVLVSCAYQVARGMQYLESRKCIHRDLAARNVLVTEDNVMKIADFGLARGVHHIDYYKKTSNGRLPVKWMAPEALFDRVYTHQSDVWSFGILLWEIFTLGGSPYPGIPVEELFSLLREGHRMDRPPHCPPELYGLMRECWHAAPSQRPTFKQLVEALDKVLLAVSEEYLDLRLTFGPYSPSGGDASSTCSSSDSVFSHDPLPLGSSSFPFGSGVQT
# Method Description: Inhibition of cell proliferation (CCK-8), Ba/F3 ETV6-FGFR4-V550L cells
# Type: cell-based
# Stated Conditions: 72 hours of incubation, read-out: Ba/F3 ETV6-FGFR4-V550L IC50
Endpoint Label: GI50

Here are 8 compounds together with their reported answers.
> print(dat)
                                smiles.data                            assayed.system       result
1  C=CC(=O)Nc1cc(N2CCC(N(C)CCO)CC2)ccc1Nc1ncc(C#N)c(Nc2ccccc2OC(C)C)n1  Ba/F3 ETV6-FGFR4-V550L cells (Homo sapiens, UniProt P22455, V550L, cells depend on it)      ≤ 10 nM
2  C=CC(=O)Nc1cc(N2CCC(N(C)CCCO)CC2)ccc1Nc1ncc(C#N)c(Nc2ccccc2OC(C)C)n1  Ba/F3 ETV6-FGFR4-V550L cells (Homo sapiens, UniProt P22455, V550L, cells depend on it)      ≤ 10 nM
3  C=CC(=O)Nc1cc(N2CCN(CC)CC2)c(F)cc1Nc1ncc(C#N)c(Nc2ccccc2OC(C)C)n1  Ba/F3 ETV6-FGFR4-V550L cells (Homo sapiens, UniProt P22455, V550L, cells depend on it)      ≤ 10 nM
4  C=CC(=O)Nc1cc(N2CCN(CC)CC2)ccc1Nc1ncc(C#N)c(Nc2ccc(OCCOC)cc2OC(C)C)n1  Ba/F3 ETV6-FGFR4-V550L cells (Homo sapiens, UniProt P22455, V550L, cells depend on it)      ≤ 10 nM
5  C=CC(=O)Nc1cc(N2CCC(N3CCN(S(C)(=O)=O)CC3)CC2)ccc1Nc1ncc(C#N)c(Nc2ccccc2OC(C)C)n1  Ba/F3 ETV6-FGFR4-V550L cells (Homo sapiens, UniProt P22455, V550L, cells depend on it)      ≤ 10 nM
6  C=CC(=O)Nc1cc(N2CCC(N(C)CCCSC)CC2)ccc1Nc1ncc(C#N)c(Nc2ccccc2OC(C)C)n1  Ba/F3 ETV6-FGFR4-V550L cells (Homo sapiens, UniProt P22455, V550L, cells depend on it)  10 to 50 nM
7  C=CC(=O)Nc1cc(N2CCC(N3CCCC3)CC2)c(C)cc1Nc1ncc(C#N)c(Nc2ccccc2OC(C)C)n1  Ba/F3 ETV6-FGFR4-V550L cells (Homo sapiens, UniProt P22455, V550L, cells depend on it)  10 to 50 nM
8  C=CC(=O)Nc1cc(N2CCC(N3CCN(C)C(=O)C3)CC2)ccc1Nc1ncc(C#N)c(Nc2ccccc2OC(C)C)n1  Ba/F3 ETV6-FGFR4-V550L cells (Homo sapiens, UniProt P22455, V550L, cells depend on it)      ≤ 10 nM

Entry under review: `C=CC(=O)Nc1cc(N2CCN(CC)CC2)ccc1Nc1ncc(C#N)c(Nc2c(C)cccc2OC(C)C)n1` . Reported GI50? 100 to 1000 nM

Look up GI50: `C=CC(=O)Nc1cc(N2CCC(N3CCN(C)CC3)CC2)c(F)cc1Nc1ncc(C#N)c(Nc2ccc(F)cc2OC(C)C)n1` ≤ 10 nM

Given `C=CC(=O)Nc1cc(N2CCN(C)CC2)c(C)cc1Nc1ncc(C#N)c(Nc2ccccc2OC(C)C)n1` , state its recorded GI50. 10 to 50 nM
